Biological target: Cannabinoid receptor 2 (Mus musculus)
Each record is given fulfilled if its reported Ki is strictly below 10 nM. Records at or above 10 nM are given not fulfilled.

- CCCCC/C=C\C/C=C\C/C=C\C/C=C\CCCC(=O)NCCCl: not fulfilled
- O=C(NC1CCCCC1)c1cn(CCN2CCOCC2)c2cc(Cl)ccc2c1=O: fulfilled
- CC1CCC(NC(=O)c2cn(CCN3CCOCC3)c3nc(Cl)ccc3c2=O)CC1 (stereo unspecified): not fulfilled
- Cc1ccc2c(=O)c(C(=O)NC3CCC(C)CC3)cn(Cc3ccccc3F)c2n1 (stereo unspecified): fulfilled
- Cc1ccc2c(=O)c(C(=O)NC3CCCCC3)cn(CCc3ccccc3)c2n1: not fulfilled
- Cc1ccc2c(=O)c(C(=O)NC3CCCC3)cn(CCN3CCOCC3)c2n1: not fulfilled
- Cc1ccc2c(n1)N(Cc1ccccc1F)CC(C(=O)NC1CCCCC1)C2O (stereo unspecified): not fulfilled
- O=C(NC1CCCCC1)c1cn(Cc2ccccc2)c2ncccc2c1=O: not fulfilled
- O=C(NC1CCCCC1)c1cn(CCN2CCOCC2)c2ncccc2c1=O: not fulfilled
- O=C(NC1CCCCC1)c1cn(Cc2ccc(F)cc2)c2ncccc2c1=O: not fulfilled

====

Parameter pKi, tested on Cannabinoid receptor 2 (Mus musculus, UniProt P47936), listed per item.
Sequence (P47936 whole entry): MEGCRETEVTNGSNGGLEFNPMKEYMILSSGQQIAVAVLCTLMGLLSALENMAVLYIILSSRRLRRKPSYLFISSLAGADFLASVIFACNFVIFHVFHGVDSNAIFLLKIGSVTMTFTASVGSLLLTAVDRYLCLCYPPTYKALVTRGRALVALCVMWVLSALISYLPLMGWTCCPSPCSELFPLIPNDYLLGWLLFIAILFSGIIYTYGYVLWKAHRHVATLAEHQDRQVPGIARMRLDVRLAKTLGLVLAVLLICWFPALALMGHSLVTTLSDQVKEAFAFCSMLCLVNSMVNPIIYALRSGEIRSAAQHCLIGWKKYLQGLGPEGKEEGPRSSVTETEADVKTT
pKi: −log10 of the molar value.
QUANTITY_MEASURED: pKi

• O=C(NC1CCCCC1)c1cn(Cc2ccccc2)c2nc(Cl)ccc2c1=O = 7.61
• Cc1ccc2c(=O)c(C(=O)NC3CCCCCC3)cn(Cc3ccc(F)cc3)c2n1 = 9.00
• O=C(NC1CCCCC1)c1cn(Cc2ccc(F)cc2)c2nc(Cl)ccc2c1=O = 7.67
• Cc1ccc2c(=O)c(C(=O)NC3CCC(C)CC3)cn(Cc3ccc(F)cc3)c2n1 (stereo not given) = 8.85

====

Molecular target: Cannabinoid receptor 1 (Mus musculus, UniProt P47746)
Sequence (P47746 whole entry): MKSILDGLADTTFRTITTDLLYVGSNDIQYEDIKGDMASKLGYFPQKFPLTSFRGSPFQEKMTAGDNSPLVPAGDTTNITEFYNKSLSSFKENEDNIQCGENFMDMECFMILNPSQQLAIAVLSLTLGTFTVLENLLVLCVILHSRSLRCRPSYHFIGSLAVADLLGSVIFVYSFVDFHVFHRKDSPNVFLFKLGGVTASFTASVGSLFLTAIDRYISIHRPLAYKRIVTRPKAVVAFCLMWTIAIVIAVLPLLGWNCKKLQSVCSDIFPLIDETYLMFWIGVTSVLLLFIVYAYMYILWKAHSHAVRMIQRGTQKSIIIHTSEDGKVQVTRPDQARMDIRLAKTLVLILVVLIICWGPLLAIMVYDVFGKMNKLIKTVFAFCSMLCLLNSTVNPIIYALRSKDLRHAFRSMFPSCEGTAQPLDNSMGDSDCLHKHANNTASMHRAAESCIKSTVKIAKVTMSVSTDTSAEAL
Ki: recorded values
QUANTITY_MEASURED: Ki (nM)

- O=C(NC1CCCCC1)c1cn(Cc2ccccc2)c2nc(Cl)ccc2c1=O: 464
- Cc1ccc2c(=O)c(C(=O)NC3CCCCCC3)cn(Cc3ccccc3)c2n1: 143
- CCCCC/C=C\C/C=C\C/C=C\C/C=C\CCCC(=O)NCCCl: 3.9
- Cc1ccc2c(=O)c(C(=O)NC3CCCCCC3)cn(Cc3ccc(F)cc3)c2n1: 4.3
- O=C(NC1CCCCC1)c1cn(Cc2ccc(F)cc2)c2ncccc2c1=O: 384
- CCCC(C)(C)c1ccc2c(c1)OC(C)(C)[C@@H]1CC=C(C)C[C@@H]21: 458
- Cc1ccc2c(=O)c(C(=O)NC3CCCCC3)cn(Cc3ccccc3)c2n1: 127
- O=C(NC1CCCCC1)c1cn(Cc2ccc(F)cc2)c2nc(Cl)ccc2c1=O: 495
- Cc1ccc2c(=O)c(C(=O)NC3CCC(C)CC3)cn(Cc3ccc(F)cc3)c2n1 (stereo not drawn): 8.7
- Cc1ccc2c(=O)c(C(=O)NC3CCC(C)CC3)cn(Cc3ccccc3F)c2n1 (stereo not drawn): 37.5
- Cc1ccc2c(=O)c(C(=O)NC3CCCCCC3)cn(Cc3ccccc3F)c2n1: 149

====

Molecular target: Cannabinoid receptor (Mus musculus) (UniProt P47746+P47936)
Sequence (P47936 whole entry, looked up, one chain of several): as the sequence (P47936 whole entry) above
Assay: Selectivity for DBA/J2 mouse CB2 receptor over CB1 receptor
Format: protein assay
Ratio Ki: recorded values
QUANTITY_MEASURED: Ratio Ki

* CC1CCC(NC(=O)c2cn(CCN3CCOCC3)c3nc(Cl)ccc3c2=O)CC1 (stereo not drawn) | > 25
* O=C(NC1CCCCC1)c1cn(Cc2ccccc2)c2ncccc2c1=O | > 21
* Cc1ccc2c(=O)c(C(=O)NC3CCC(C)CC3)cn(Cc3ccccc3F)c2n1 (stereo not drawn) | 4
* O=C(NC1CCCCC1)c1cn(CCN2CCOCC2)c2cc(Cl)ccc2c1=O | > 303
* Cc1ccc2c(=O)c(C(=O)NC3CCCCCC3)cn(Cc3ccccc3)c2n1 | 28
* Cc1ccc2c(=O)c(C(=O)NC3CCCC3)cn(CCN3CCOCC3)c2n1 | > 20
* Cc1ccc2c(=O)c(C(=O)NC3CCCCC3)cn(CCc3ccccc3)c2n1 | > 62
* CCCCC/C=C\C/C=C\C/C=C\C/C=C\CCCC(=O)NCCCl | 0.03

Source listed as ChEMBL document CHEMBL1137375.
